Listing: IC50 of selected compounds
- study.target: CAIX-expressing human HT-29 colorectal cancer cells (Homo sapiens, UniProt Q16790)
- Construct: CAIX-expressing human HT-29 colorectal cancer cells; host or cells: HT-29 human colorectal cancer cells
- method.description: FACS binding assay (IC50 determination, competition with tracer 3BP-2776 or 3BP-4149)
- experimental.conditions: FACS competition on HT-29 cells, Tracer ID 3BP-2776 (10 nM, biotin-labeled), 4° C., 1 hour; read-out: pIC50 category (activity) (converted)
Starred links: 1 amine or outer side, 2 acyl side, 3 side chain; linkers in the order of their positions; H or OH if unused. Positions of bridges follow the written chain, without caps; N, C: chain ends. Non-standard residues stand in square brackets, D forms with d. Residues, ends and D or L forms follow the SMILES beside them. mXylylene = c1cc(C[*:1])cc(C[*:2])c1

Record excerpt, results attached:
[
  {
    "compound": "CC(=O)N[C@H](C(=O)N[C@@H](Cc1ccc(O)cc1)C(=O)N[C@H]1CSCc2cccc(c2)CSC[C@@H](C(N)=O)NC(=O)CNC(=O)[C@H](Cc2c[nH]c3ccccc23)NC(=O)[C@H]([C@@H](C)O)NC(=O)[C@H](CC(C)C)NC(=O)[C@H](Cc2c[nH]c3ccccc23)NC(=O)[C@H](CC(=O)O)NC(=O)[C@@H](C)NC(=O)[C@H](CCC(=O)O)NC1=O)C(C)C [3BP-3284] (Ac-VYCE[dA]DWLTWGC-NH2; linker 3-12 via mXylylene)",
    "IC50": "< 10 nM"
  },
  {
    "compound": "CC(=O)N[C@H](C(=O)N[C@@H](Cc1ccc(O)cc1)C(=O)N[C@H]1CSCc2cccc(c2)CSC[C@@H](C(N)=O)NC(=O)[C@H](CCC(N)=O)NC(=O)[C@H](Cc2c[nH]c3ccccc23)NC(=O)[C@H]([C@@H](C)O)NC(=O)[C@H](CC(C)C)NC(=O)[C@H](Cc2c[nH]c3ccccc23)NC(=O)[C@@H](CC(=O)O)NC(=O)CNC(=O)[C@H](CCC(=O)O)NC1=O)C(C)C [3BP-3047] (Ac-VYCEG[dD]WLTWQC-NH2; linker 3-12 via mXylylene)",
    "IC50": "100 to 794 nM"
  }
]

Now, please, on to the next compound.
// output IC50; input CC(=O)N[C@@H](C(=O)N[C@@H](Cc1ccc(O)cc1)C(=O)N[C@H]1CSCc2cccc(c2)CSC[C@@H](C(N)=O)NC(=O)[C@H](CCC(N)=O)NC(=O)[C@H](Cc2c[nH]c3ccccc23)NC(=O)[C@H]([C@@H](C)O)NC(=O)[C@H](CC(C)C)NC(=O)[C@H](Cc2c[nH]c3ccccc23)NC(=O)[C@H](CC(=O)O)NC(=O)CNC(=O)[C@H](CCC(=O)O)NC1=O)C(C)C [3BP-3043] (Ac-[dV]YCEGDWLTWQC-NH2; linker 3-12 via mXylylene) ; system CAIX-expressing human HT-29 colorectal cancer cells (Homo sapiens, UniProt Q16790) 10 to 79.4 nM

Sourced from patent US20250339569A1
